ASSAYED SYSTEM: T1, chloroplast signal recognition particle 43-kDa protein (cpSRP43), wild type, full length (A. thaliana, UniProt O22265 57-373)
T1 sequence: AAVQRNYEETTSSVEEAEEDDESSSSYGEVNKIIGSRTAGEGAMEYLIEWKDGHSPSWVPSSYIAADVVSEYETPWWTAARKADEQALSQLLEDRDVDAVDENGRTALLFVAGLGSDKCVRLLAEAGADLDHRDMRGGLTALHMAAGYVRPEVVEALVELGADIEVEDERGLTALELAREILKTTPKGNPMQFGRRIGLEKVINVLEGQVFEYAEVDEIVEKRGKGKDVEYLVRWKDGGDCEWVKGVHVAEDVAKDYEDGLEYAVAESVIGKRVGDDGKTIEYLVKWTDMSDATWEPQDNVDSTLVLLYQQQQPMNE
ASSAY INFO: fluorescence polarisation
pKd: −log10 of the molar value. No end group written: not given here.
MEASURED PARAMETER: pKd

| BINDER | MEASURED PARAMETER | VAL |
| --- | --- | --- |
| GSFDPLGLADD (also: HiLyte Fluor 488 label, position not given here) [HiLyte Fluor 488-labeled L11 peptide] | pKd | 7.55 |
| QKQKAPPGTARRKRKAC (also: fluorescein label, position not given here) [fluorescein-labeled 54C peptide] | pKd | 6.64 |
